Known pIC50 of a selection of compounds
- Measurement description: Inhibition of rabbit erythrocyte SAHase using S-adenosyl-L-homocysteine as substrate assessed as L-homocysteine formation incubated for 5 mins prior to substrate addition measured after 1 hr
- Set-up: species or system Oryctolagus cuniculus
pIC50: −log10 of the molar value.

Cpd smiles: Nc1ncc(F)c2c1ncn2[C@@H]1C[C@H](O)[C@@H](O)[C@H]1O
pIC50: 8.24

Cpd smiles: Nc1ncc(F)c2c1ncn2[C@@H]1C[C@H](CCO)[C@@H](O)[C@H]1O
pIC50: 8.05

Cpd smiles: Nc1nccc2c1ncn2[C@@H]1C=C(CO)[C@@H](O)[C@H]1O
pIC50: 8.03

Cpd smiles: Nc1ncc(F)c2c1ncn2[C@@H]1C[C@H](CO)[C@@H](O)[C@H]1O
pIC50: 7.54
